- EXPERIMENTAL SYSTEM: T1, APBA1_1, Q02410
- T1 sequence (Q02410 651-752, limits assumed, looked up): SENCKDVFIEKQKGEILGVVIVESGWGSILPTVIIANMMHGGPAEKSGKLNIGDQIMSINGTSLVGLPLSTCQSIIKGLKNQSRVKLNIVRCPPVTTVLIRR
- TEST: holdup assay
- Design: key: below the threshold = too weak to quantify, mostly under pKd 3.1 to 4
- RUN CONDITIONS: plain residues with an end cap or a label only (N-terminal biotin on a linker: ado-ado)
ASSAY ENDPOINT: pKd

BINDER	ASSAY ENDPOINT	ASSAY RESULT
ETQVTAETVI [TMEM225B, P0DP42]	pKd	below the threshold
TACCHSETVV [TGFA, P01135]	pKd	below the threshold
TSQESEDTYL [TBC1D10A, Q9BXI6]	pKd	below the threshold
CLREWCDAFL [BANF1, O75531]	pKd	3.72
PPYRHRNTVV [ERBB4, Q15303]	pKd	below the threshold
HLRARKSEWV [GJD4, Q96KN9]	pKd	below the threshold
PAPSSGKDYV [CLDN1, O95832]	pKd	below the threshold
VDSTVKVWTC [TRAF7, Q6Q0C0]	pKd	below the threshold
TSSMRGMDAV [RSRC2, Q7L4I2]	pKd	below the threshold
GQEEQVTTRL [TRPC5, Q9UL62]	pKd	below the threshold
EKKTLIGIKL [GOT1L1, Q8NHS2]	pKd	below the threshold
QSLNRMEYIV [JAG1, P78504]	pKd	below the threshold
PEYLGLDVPV [ERBB2, P04626]	pKd	below the threshold
SNAGNTATKA [NOSTRIN, Q8IVI9]	pKd	below the threshold
KKAPTNEFYA [SDC4, P31431]	pKd	below the threshold
YLEPVLSSEL [ATP2A2, P16615;P16615-3]	pKd	below the threshold
EALLQMESVA [CAVIN3, Q969G5]	pKd	below the threshold
GSGAVEMESV [AQP6, Q13520]	pKd	below the threshold
LSEFKAMDSI [CTNNA1, P35221]	pKd	below the threshold
DDEDRLVIEI [ZNF831, Q5JPB2]	pKd	below the threshold
RRRESYSTTV [EVI5, O60447]	pKd	below the threshold
IPLDGETEEL [MYOZ1, Q9NP98]	pKd	below the threshold
QMNQTLPVQV [EPHB3, P54753]	pKd	below the threshold
SAAKVLTSMC [GHRHR, Q02643]	pKd	below the threshold
SAKVRTVTSV [RASL11B, Q9BPW5]	pKd	below the threshold
TASPAKETSF [SLC2A7, Q6PXP3]	pKd	below the threshold
NLSIEKETKL [ASNSD1, Q9NWL6]	pKd	below the threshold
SKENVQETQI [LRRC4B, Q9NT99]	pKd	3.48
VKPQVSESKL [ACOT8, O14734]	pKd	below the threshold
RRISSLESEV [GRIN2C, Q14957]	pKd	below the threshold
DDPSTAETVL [ABCA7, Q8IZY2]	pKd	below the threshold
PLSPEQPTKL [TRIM50, Q86XT4]	pKd	below the threshold
